src = paper PMC9706563

Target: PRMT5-MEP50 (Homo sapiens)
Construct: The compounds were tested by means of FP with the full-length PRMT5-MEP50 complex; made in house
Sequence (O14744 whole entry): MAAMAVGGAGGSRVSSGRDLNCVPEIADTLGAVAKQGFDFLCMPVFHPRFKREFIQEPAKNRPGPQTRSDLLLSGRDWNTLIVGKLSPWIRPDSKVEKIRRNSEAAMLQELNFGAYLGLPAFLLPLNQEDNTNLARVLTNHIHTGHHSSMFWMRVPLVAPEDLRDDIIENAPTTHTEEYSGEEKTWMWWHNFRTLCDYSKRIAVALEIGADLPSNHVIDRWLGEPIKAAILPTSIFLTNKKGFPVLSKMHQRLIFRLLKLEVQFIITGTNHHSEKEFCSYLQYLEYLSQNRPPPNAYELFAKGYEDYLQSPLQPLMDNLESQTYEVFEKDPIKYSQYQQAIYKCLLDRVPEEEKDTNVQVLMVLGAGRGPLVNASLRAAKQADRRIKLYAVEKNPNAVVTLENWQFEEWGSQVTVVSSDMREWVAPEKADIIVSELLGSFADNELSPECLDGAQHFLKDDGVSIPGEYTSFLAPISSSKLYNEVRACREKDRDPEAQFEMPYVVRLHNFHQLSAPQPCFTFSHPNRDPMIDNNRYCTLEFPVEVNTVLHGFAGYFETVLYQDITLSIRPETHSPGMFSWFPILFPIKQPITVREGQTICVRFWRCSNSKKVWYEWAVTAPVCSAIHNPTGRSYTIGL
Sequence (Q9BQA1 whole entry partner): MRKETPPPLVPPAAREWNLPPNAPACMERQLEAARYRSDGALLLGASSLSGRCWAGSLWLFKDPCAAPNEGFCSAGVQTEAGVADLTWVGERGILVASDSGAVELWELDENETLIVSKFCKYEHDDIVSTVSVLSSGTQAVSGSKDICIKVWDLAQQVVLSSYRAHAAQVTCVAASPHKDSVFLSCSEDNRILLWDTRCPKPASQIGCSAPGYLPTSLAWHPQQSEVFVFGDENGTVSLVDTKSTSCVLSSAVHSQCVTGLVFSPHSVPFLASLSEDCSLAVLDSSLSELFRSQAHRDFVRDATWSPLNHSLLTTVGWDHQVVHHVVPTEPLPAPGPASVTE
Test: Direct binding fluorescence polarization (FP) assay of FITC-labeled peptides
Settings: supplementary CSV, read-out: PRMT5-MEP50 Kd
Square brackets hold non-standard residues; d marks the D form. Peptide text beside a SMILES is read from it. * marks the point of attachment. FITC = O=C1OC2(c3ccc(O)cc3Oc3cc(O)ccc32)c2ccc(NC(=S)*)cc21; Phe(3-CF3) = N[C@@H](Cc1cccc(C(F)(F)F)c1)C(=O)O; Phe(2-F) = N[C@@H](Cc1ccccc1F)C(=O)O; Cit = NC(=O)NCCC[C@H](N)C(=O)O; NMeA = CN[C@@H](C)C(=O)O; Nle = CCCC[C@H](N)C(=O)O; Sar = CNCC(=O)O
recorded_metric: Kd

- compound: "CC(=O)N[C@H](C(=O)N1CCC[C@H]1C(=O)NCC(=O)N[C@@H](CCC(N)=O)C(=O)N[C@@H](Cc1ccccc1)C(=O)N[C@@H](CC(=O)O)C(=O)N[C@@H](CC(=O)O)C(=O)N(C)[C@@H](C)C(=O)N[C@@H](CC(=O)O)C(=O)N[C@@H](CCCCNC(=S)Nc1ccc2c(c1)C(=O)OC21c2ccc(O)cc2Oc2cc(O)ccc21)C(N)=O)C(C)C [Compound 45, Ac-VPGQFDD-(N-Me)A-DK(Fitc)-NH2] (Ac-VPGQFDD[NMeA]DK(FITC)-NH2)"
  study_target: "PRMT5-MEP50 (Homo sapiens)"
  recorded_metric: "Kd"
  measurement: "> 2000 nM"
- compound: "CC(=O)N[C@H](C(=O)N1CCC[C@H]1C(=O)NCC(=O)N[C@@H](CCC(N)=O)C(=O)N[C@@H](Cc1ccccc1)C(=O)N[C@@H](CC(=O)O)C(=O)N[C@@H](CC(=O)O)C(=O)N[C@@H](C)C(=O)N[C@@H](CCC(=O)O)C(=O)N[C@@H](CCCCNC(=S)Nc1ccc2c(c1)C(=O)OC21c2ccc(O)cc2Oc2cc(O)ccc21)C(N)=O)C(C)C [Compound 33] (Ac-VPGQFDDAEK(FITC)-NH2)"
  study_target: "PRMT5-MEP50 (Homo sapiens)"
  recorded_metric: "Kd"
  measurement: "531 nM"
- compound: "CC(=O)N[C@H](C(=O)N1CCC[C@H]1C(=O)NCC(=O)N[C@@H](CCC(N)=O)C(=O)N[C@@H](Cc1cccc(C(F)(F)F)c1)C(=O)N[C@@H](CC(=O)O)C(=O)N[C@@H](CC(=O)O)C(=O)N[C@@H](C)C(=O)N[C@@H](CC(=O)O)C(=O)N[C@@H](CCCCNC(=S)Nc1ccc2c(c1)C(=O)OC21c2ccc(O)cc2Oc2cc(O)ccc21)C(N)=O)C(C)C [Compound S16] (Ac-VPGQ[Phe(3-CF3)]DDADK(FITC)-NH2)"
  study_target: "PRMT5-MEP50 (Homo sapiens)"
  recorded_metric: "Kd"
  measurement: "> 1000 nM"
- compound: "CC(=O)N[C@H](C(=O)N1CCC[C@H]1C(=O)N(C)CC(=O)N[C@@H](CCC(N)=O)C(=O)N[C@@H](Cc1ccccc1)C(=O)N[C@@H](CC(=O)O)C(=O)N[C@@H](CC(=O)O)C(=O)N[C@@H](C)C(=O)N[C@@H](CC(=O)O)C(=O)N[C@@H](CCCCNC(=S)Nc1ccc2c(c1)C(=O)OC21c2ccc(O)cc2Oc2cc(O)ccc21)C(N)=O)C(C)C [Compound 48, Ac-VP-(N-Me)G-QFDDADK(Fitc)-NH2] (Ac-VP[Sar]QFDDADK(FITC)-NH2)"
  study_target: "PRMT5-MEP50 (Homo sapiens)"
  recorded_metric: "Kd"
  measurement: "> 2000 nM"
- compound: "CC(C)[C@H](NC(=O)[C@H](CCCNC(=N)N)NC(=O)[C@H](CO)NC(=O)COCCOCCNC(=S)Nc1ccc2c(c1)C(=O)OC21c2ccc(O)cc2Oc2cc(O)ccc21)C(=O)N[C@H](C(=O)N1CCC[C@H]1C(=O)N[C@@H]1CNC(=O)CC[C@H](C(=O)N[C@@H](CC(=O)O)C(=O)N[C@@H](C)C(=O)N[C@@H](CC(=O)O)C(N)=O)NC(=O)[C@H](Cc2ccccc2)NC(=O)[C@H](CCC(N)=O)NC1=O)C(C)C [Compound 10]"
  study_target: "PRMT5-MEP50 (Homo sapiens)"
  recorded_metric: "Kd"
  measurement: "> 2000 nM"
- compound: "CCCC[C@H](NC(=O)[C@H](CC(=O)O)NC(=O)[C@H](CC(=O)O)NC(=O)[C@H](Cc1ccccc1)NC(=O)[C@H](CCC(N)=O)NC(=O)CNC(=O)[C@@H]1CCCN1C(=O)[C@@H](NC(C)=O)C(C)C)C(=O)N[C@@H](CC(=O)O)C(=O)N[C@@H](CCCCNC(=S)Nc1ccc2c(c1)C(=O)OC21c2ccc(O)cc2Oc2cc(O)ccc21)C(N)=O [Compound S29] (Ac-VPGQFDD[Nle]DK(FITC)-NH2)"
  study_target: "PRMT5-MEP50 (Homo sapiens)"
  recorded_metric: "Kd"
  measurement: "> 1000 nM"
- compound: "CC(=O)N[C@H](C(=O)N1CCC[C@H]1C(=O)NCC(=O)N[C@@H](CCCNC(N)=O)C(=O)N[C@@H](Cc1ccccc1)C(=O)N[C@@H](CC(=O)O)C(=O)N[C@@H](CC(=O)O)C(=O)N[C@@H](C)C(=O)N[C@@H](CC(=O)O)C(=O)N[C@@H](CCCCNC(=S)Nc1ccc2c(c1)C(=O)OC21c2ccc(O)cc2Oc2cc(O)ccc21)C(N)=O)C(C)C [Compound S11] (Ac-VPG[Cit]FDDADK(FITC)-NH2)"
  study_target: "PRMT5-MEP50 (Homo sapiens)"
  recorded_metric: "Kd"
  measurement: "> 1000 nM"
- compound: "CC(=O)N[C@H](C(=O)N1CCC[C@H]1C(=O)NCC(=O)N[C@@H](CCC(N)=O)C(=O)N[C@@H](Cc1ccccc1)C(=O)N[C@@H](CC(=O)O)C(=O)N[C@@H](CC(=O)O)C(=O)N[C@@H](C)C(=O)N[C@@H](Cc1ccc(O)cc1)C(=O)N[C@@H](CCCCNC(=S)Nc1ccc2c(c1)C(=O)OC21c2ccc(O)cc2Oc2cc(O)ccc21)C(N)=O)C(C)C [Compound S32] (Ac-VPGQFDDAYK(FITC)-NH2)"
  study_target: "PRMT5-MEP50 (Homo sapiens)"
  recorded_metric: "Kd"
  measurement: "> 1000 nM"
- compound: "CC(=O)N[C@H](C(=O)N1CCC[C@H]1C(=O)NCC(=O)N[C@@H](CCC(N)=O)C(=O)N[C@@H](Cc1ccccc1F)C(=O)N[C@@H](CC(=O)O)C(=O)N[C@@H](CC(=O)O)C(=O)N[C@@H](C)C(=O)N[C@@H](CC(=O)O)C(=O)N[C@@H](CCCCNC(=S)Nc1ccc2c(c1)C(=O)OC21c2ccc(O)cc2Oc2cc(O)ccc21)C(N)=O)C(C)C [Compound S12] (Ac-VPGQ[Phe(2-F)]DDADK(FITC)-NH2)"
  study_target: "PRMT5-MEP50 (Homo sapiens)"
  recorded_metric: "Kd"
  measurement: "> 1000 nM"
- compound: "CC(=O)N1CCC[C@H]1C(=O)N[C@H](C(=O)NC1CCCCC[C@@H](C(=O)N[C@@H](Cc2ccc([N+](=O)[O-])cc2)C(=O)N[C@@H](CC(C(=O)O)C(=O)O)C(=O)N[C@@H](CCC(N)=O)C(=O)N[C@@H](CCCCNC(=S)Nc2ccc3c(c2)C(=O)OC32c3ccc(O)cc3Oc3cc(O)ccc32)C(N)=O)NC(=O)[C@H](CC(=O)O)NC(=O)[C@H](C)NC1=O)C(C)C (stereo in doubt) [Compound 52]"
  study_target: "PRMT5-MEP50 (Homo sapiens)"
  recorded_metric: "Kd"
  measurement: "> 2000 nM"
